Molecular target: SARS-CoV-2 S2 in postfusion conformation (SARS-CoV-2 (D614G ectodomain; D614G …, UniProt P0DTC2, strain)
Test: ELISA
experimental endpoint: binding result

| binder | experimental endpoint | result |
| --- | --- | --- |
| C13C9 mAb (antibody, V domains shown) VH: EVQLVQSGPEVKKPGTSARVSCKASGFTSKNTALQWVRQARGQPLEWMGWIDISNYITNYAQKFRGRLTITWDLSASMAYMELSSLRSEDTAVYYCAAVGKDDDVLTGGNKYFDHWGQGTLVTVSS VL: SYELTQPPSVSVSPGQTARITCSGDALPKKYAYWYQQKSGQAPVLVIHEDDKRPSGIPGRFSASSSGTTATLTISGAQVEDEADYYCYSTDTNDNHAFGSGTKLTVL | binding result | binds |
| C77G12 mAb (antibody, V domains shown) VH: EVQLVESGGGVVQPGRSLRISCAVSGFTFGSYAMHWVRQAPGKGLEWVGVMSSDGHNEYYADSVKGRFTISRDNSRNKLYLEMNNLRVDDTAVFYCARGSDYVDDSPPLHYWGQGTLVTVSS VL: DIQLTQSPSSLSASIGDRVTITCRASQDIANKLAWFQQAPGKAPKSLIYAASRLQSGVPSQFSGSGSGTDFTLTIESLQAGDFATYFCQQYDSFPFTFGPGTKVDVK | binding result | binds |
| C13B8 mAb (antibody, V domains shown) VH: QVQLQESGPGLVQPSQTLTLTCTVSGDSISNEDYHWTWIRQHPGKGLEWMGYLQYSGNTNYNPSLKSRMTISVDTSKNQFSLRLNSVTAADTAVYFCATSIVLTGMSNKIQPFDYWGQGTLVTVSS VL: SYELTQPPSVSVSPGQMARITCSGEALPKKYAYWYQQKGGQFPVLVIYKDTERPSGIPERFSGSSSGTIVTLTISGVQPEDEADYYCLSADTSGTWVFGGGTKLTVL | binding result | binds |
| VP12E7 mAb (antibody, V domains shown) VH: QVQLVQSGGGVVQPGESLRLSCSGSGFTFNNYIMHWVRQAPGQGLDYVSGIGSDGRNTNYGDSVKGRFTISRDNSKDTLYLQMTSLRAEDTAFYYCVKGLDVLRFLDLSTPSGERLDAFDIWGQGTMVTVSS VL: DIVMTQSPSFLSASVGDRVTITCRASQGISNYLAWYQQKPGKAPHLLIYAASTLQSGVPSRFSGSGSGTEFTLTISSLQPEDFATYYCQQLNSYPLFTFGPGTKVDIE | binding result | binds |
